Data origin, for the record: ChEMBL document CHEMBL1155287

assay: Inhibition of HIV1 JRFL gp120-mediated CHO cells fusion to HeLaP4 cells by HIV LTR-beta galactosidase reporter assay; type: cell-based; conditions: Human immunodeficiency virus 1, JRFL
// reported IC50 per item
Property label: IC50

[
  {
    "Compound": "CC(Oc1ccccc1C(=O)N(C)C)C(=O)N1CCN(C(=O)c2ccccc2)C[C@H]1C (mixture of isomers)",
    "Result": "> 25 µM"
  },
  {
    "Compound": "CC(Oc1cccc(C(=O)N(C)C)c1)C(=O)N1CCN(C(=O)c2ccccc2)C[C@H]1C (mixture of isomers)",
    "Result": "> 25 µM"
  },
  {
    "Compound": "CNC(=O)c1ccccc1OC(C)C(=O)N1CCN(C(=O)c2ccccc2)C[C@H]1C (mixture of isomers)",
    "Result": "> 25 µM"
  }
]
